Origin of measurements: PubChem BioAssay AID1963429

Test system: 126254-015-R-J1-PDC complex spheroid growth, % test/control;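 note: spheroids exposed to compound for seven days; 100% = DMSO vehicle control wells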
Assay: Anticancer human tumor 126254-015-R-J1-PDC patient-derived soft tissue sarcoma cell line growth inhibition [Asc]
Conditions: second compound 3.16 µM; first compound 0.01 µM; active compounds read low
READOUT_KIND: viability, T/C (%)
Give your result in % as a bare value.

Query: # viability, T/C lookup, item COc1c(OCCCN2CCOCC2)ccc2c3n(c(=NC(=O)c4cnc(N)nc4)nc12)CCN3 + Cc1c(S(C)(=O)=O)c(-c2cc(F)cc(N3CCN(c4ccc(NS(=O)(=O)c5ccc(NC(CCN6CCC(C(=O)OCCCP(=O)(O)O)CC6)CSc6ccccc6)c(S(=O)(=O)C(F)(F)F)c5)cc4)CC3)c2)c(-c2ccc(Cl)cc2)n1C(C)C
Result: 77.5

Query: # viability, T/C lookup, item CCN1CCN(Cc2ccc(Nc3ncc(F)c(-c4cc(F)c5nc(C)n(C(C)C)c5c4)n3)nc2)CC1 + Cc1c(S(C)(=O)=O)c(-c2cc(F)cc(N3CCN(c4ccc(NS(=O)(=O)c5ccc(NC(CCN6CCC(C(=O)OCCCP(=O)(O)O)CC6)CSc6ccccc6)c(S(=O)(=O)C(F)(F)F)c5)cc4)CC3)c2)c(-c2ccc(Cl)cc2)n1C(C)C
Result: 87.7

Query: # viability, T/C lookup, item NC1CCC(NC2CC2c2ccccc2)CC1 (stereo unspecified) + Cc1c(S(C)(=O)=O)c(-c2cc(F)cc(N3CCN(c4ccc(NS(=O)(=O)c5ccc(NC(CCN6CCC(C(=O)OCCCP(=O)(O)O)CC6)CSc6ccccc6)c(S(=O)(=O)C(F)(F)F)c5)cc4)CC3)c2)c(-c2ccc(Cl)cc2)n1C(C)C
Result: 71.2

Query: # viability, T/C lookup, item Cn1ncnc1[C@H]1c2n[nH]c(=O)c3cc(F)cc(c23)N[C@@H]1c1ccc(F)cc1 + Cc1c(S(C)(=O)=O)c(-c2cc(F)cc(N3CCN(c4ccc(NS(=O)(=O)c5ccc(NC(CCN6CCC(C(=O)OCCCP(=O)(O)O)CC6)CSc6ccccc6)c(S(=O)(=O)C(F)(F)F)c5)cc4)CC3)c2)c(-c2ccc(Cl)cc2)n1C(C)C
Result: 61

Query: # viability, T/C lookup, item O=C(c1ccc(F)c(F)c1Nc1ccc(I)cc1F)N1CC(O)([C@@H]2CCCCN2)C1 + Cc1c(S(C)(=O)=O)c(-c2cc(F)cc(N3CCN(c4ccc(NS(=O)(=O)c5ccc(NC(CCN6CCC(C(=O)OCCCP(=O)(O)O)CC6)CSc6ccccc6)c(S(=O)(=O)C(F)(F)F)c5)cc4)CC3)c2)c(-c2ccc(Cl)cc2)n1C(C)C
Result: 92

Query: # viability, T/C lookup, item CNC(C)C(=O)NC1CN(S(=O)(=O)c2cccc(S(=O)(=O)N3CCC4CCC(C(=O)NC(c5ccccc5)c5ccccc5)N4C(=O)C(NC(=O)C(C)NC)C3)c2)CCC2CCC(C(=O)NC(c3ccccc3)c3ccccc3)N2C1=O (stereo unspecified) + Cc1c(S(C)(=O)=O)c(-c2cc(F)cc(N3CCN(c4ccc(NS(=O)(=O)c5ccc(NC(CCN6CCC(C(=O)OCCCP(=O)(O)O)CC6)CSc6ccccc6)c(S(=O)(=O)C(F)(F)F)c5)cc4)CC3)c2)c(-c2ccc(Cl)cc2)n1C(C)C
Result: 79
